- ASSAY METHOD TEXT: in vitro
- CONDITION CONTEXT: human
READOUT NAME: microsomal CLint (µL/min/mg)
Write the answer as a number in µL/min/mg, unit excluded.

Entry Cc1ccc(C(=O)Nc2ccc(CN3CCN(C)CC3)c(C(F)(F)F)c2)cc1C#Cc1cnc2[nH]ncc2c1 [olverembatinib, Olverembatinib] — recorded microsomal CLint = 5.26

====

- ASSAY METHOD TEXT: PBPK model parameters optimized or assumed (Simcyp minimal PBPK)
- Parameters: species or system human
- CONDITION CONTEXT: human; optimized based on observed data; read-out: Kp Scalar
READOUT NAME: Kp
Answer field: number only, no words.

Entry `Cc1ccc(C(=O)Nc2ccc(CN3CCN(C)CC3)c(C(F)(F)F)c2)cc1C#Cc1cnc2[nH]ncc2c1` — recorded Kp = 6.01
